Experiment: DLS size and polydispersity of hEPO mRNA lipid nanoparticles
Assay type: physicochemical
Conditions: Table 1; hEPO mRNA LNP, Cationic Lipid:DMG-PEG2000:Cholesterol:DOPE=40:1.5:28.5:30, N/P ratio 4, Process A
Experimental: The lipid nanoparticles in the examples of the present invention were formulated using Process A of WO 2018/089801 (see, e.g., Example 1 and FIG. 1 of WO 2018/089801). […] DLS measurements were performed using a Malvern Instruments Zetasizer with a backscattering detector angle of 173° and a 4-mW, 633-nm He—Ne laser (Worcestershire, UK). The samples were analyzed by diluting in 10% Trehalose and measuring the size and Poly dispersity Index (PDI) in an optical grade polystyrene cuvette. […]
Recorded measurements of PDI, one per entry
Could you keep your reply to the number by itself?

Example entries begin here.
CCCCCCCCCCC(O)CN(CCCCOC(=O)CN(C)CC(=O)OCCCCN(CC(O)CCCCCCCCCC)CC(O)CCCCCCCCCC)CC(O)CCCCCCCCCC (stereo not shown)	0.098
CCCCCCCCCCC(O)CN(CCCOC(=O)CCC(C)C(=O)OCCCN(CC(O)CCCCCCCCCC)CC(O)CCCCCCCCCC)CC(O)CCCCCCCCCC (stereo not shown)	0.124
CCCCCC/C=C\COC(=O)CCCCCC(O)CN(CCCOC(=O)CN(C)CC(=O)OCCCN(CC(O)CCCCCC(=O)OC/C=C\CCCCCC)CC(O)CCCCCC(=O)OC/C=C\CCCCCC)CC(O)CCCCCC(=O)OC/C=C\CCCCCC (stereo not shown)	0.052

Item under review: CCCCCCCCC(O)CN(CCCOC(=O)CN(C)CC(=O)OCCCN(CC(O)CCCCCCCC)CC(O)CCCCCCCC)CC(O)CCCCCCCC (stereo not shown) . Reported PDI?
0.091

---

Recorded measurements of Encapsulation Percentage (%), one per entry
test: RiboGreen assay, % encapsulation of mRNA in lipid nanoparticles; format: physicochemical; conditions: Table 3, further LNPs; hEPO mRNA LNP, Cationic Lipid:DMG-PEG2000:Cholesterol:DOPE=40:1.5:28.5:30, N/P ratio 4, Process A
Express your answer in %, writing the number without its unit.

CCCCCCCCCCC(O)CN(CCCOC(=O)N[C@@H](Cc1ccccc1)C(=O)OCCCN(CC(O)CCCCCCCCCC)CC(O)CCCCCCCCCC)CC(O)CCCCCCCCCC (stereo partly shown)	83

Item under review: CCCCCCCCCCCOC(=O)CCCC(O)CN(CCCCN(C)C(=O)CN(C)CC(=O)N(C)CCCCN(CC(O)CCCCCC(=O)OC(CCCCCCCC)CCCCCCCC)CC(O)CCCC(=O)OCCCCCCCCCCC)CC(O)CCCCCC(=O)OC(CCCCCCCC)CCCCCCCC (stereo not shown) . Reported Encapsulation Percentage (%)?
99

Another molecule to look at: CCCCCCCCCCC(=O)OCCCCC(O)CN(CCCCNC(=O)CC(C)(O)CC(=O)NCCCCN(CC(O)CCCCCOC(=O)C(CCCCCCCC)CCCCCCCC)CC(O)CCCCOC(=O)CCCCCCCCCC)CC(O)CCCCCOC(=O)C(CCCCCCCC)CCCCCCCC (stereo not shown)
96

Another molecule to look at: CCCCCCCCCCC(O)CN(CCCOC(=O)[C@H](Cc1c[nH]c2ccccc12)NC(=O)CCCN(CC(O)CCCCCCCCCC)CC(O)CCCCCCCCCC)CC(O)CCCCCCCCCC (stereo partly shown)
85

Another molecule to look at: CCCCCCCCC(O)CN(CCCNC(=O)CC(C)(O)CC(=O)NCCCN(CC(O)CCCCCCCC)CC(O)CCCCCCCC)CC(O)CCCCCCCC (stereo not shown)
84

Another molecule to look at: CCCCCCCCCCC(O)CN(CCCOC(=O)N[C@@H](Cc1c[nH]cn1)C(=O)OCCCN(CC(O)CCCCCCCCCC)CC(O)CCCCCCCCCC)CC(O)CCCCCCCCCC (stereo partly shown)
91

Another molecule to look at: CCCCCCCCCCC(O)CN(CCCOC(=O)[C@H](CCc1ccc(O)cc1)NC(=O)CCCN(CC(O)CCCCCCCCCC)CC(O)CCCCCCCCCC)CC(O)CCCCCCCCCC (stereo partly shown)
82
